Entries and their Cell Survival Rate (increased percentage of cell survival compared with the Group of 5-FU) values follow.
System: HaCaT cells
run.description: Relief of 5-FU proliferative toxicity to HaCaT cells (CCK-8 cell survival)
Assay type: cell-based
assay.conditions: 5-Fu 20 μM; selected compound final concentration 1.6 μM; HaCaT cells
recorded.metric: Cell Survival Rate (increased percentage of cell survival compared with the Group of 5-FU)

compound	result
CC(=O)Oc1ccccc1C(=O)OC[C@H]1O[C@@H](n2cc(C)c(=O)[nH]c2=O)C[C@@H]1O	55%-62%
Cc1cn([C@H]2C[C@H](OC(=O)C(C)c3cccc(Oc4ccccc4)c3)[C@@H](CO)O2)c(=O)[nH]c1=O (some centres unmarked)	49%-56%
CCC(CC)COC(=O)[C@H](C)N[P@@](=O)(Oc1ccccc1)O[C@H]1C[C@H](n2cc(C)c(=O)[nH]c2=O)O[C@@H]1CO	56%-63%
CC1=C(CC(=O)OC[C@H]2O[C@@H](n3cc(C)c(=O)[nH]c3=O)C[C@@H]2O)c2cc(F)ccc2/C1=C\c1ccc([S+](C)[O-])cc1 (some centres unmarked)	57%-65%
Cc1cn([C@H]2C[C@H](O)[C@@H](COC(=O)C(C)c3cccc(Oc4ccccc4)c3)O2)c(=O)[nH]c1=O (some centres unmarked)	39%-45%
COc1ccc2cc([C@H](C)C(=O)O[C@H]3C[C@H](n4cc(C)c(=O)[nH]c4=O)O[C@@H]3CO)ccc2c1	59%-67%
Cc1cn([C@H]2C[C@H](O)[C@@H](COC(=O)Cc3ccccc3Nc3c(Cl)cccc3Cl)O2)c(=O)[nH]c1=O	58%-66%
Cc1ccc(C(=O)c2ccc(CC(=O)O[C@H]3C[C@H](n4cc(C)c(=O)[nH]c4=O)O[C@@H]3CO)n2C)cc1	39%-46%
Cc1cn([C@H]2C[C@H](O)[C@@H](COC(=O)[C@H](C)c3ccc(-c4ccccc4)c(F)c3)O2)c(=O)[nH]c1=O	19%-27%
Cc1ccc(Nc2c(F)cccc2Cl)c(CC(=O)OC[C@H]2O[C@@H](n3cc(C)c(=O)[nH]c3=O)C[C@@H]2O)c1	25%-33%
Cc1cn([C@H]2C[C@H](O)[C@@H](COC(=O)[C@@H](C)c3ccc(CC(C)C)cc3)O2)c(=O)[nH]c1=O	29%-38%
COc1ccc2c(c1)c(CC(=O)OC[C@H]1O[C@@H](n3cc(C)c(=O)[nH]c3=O)C[C@@H]1O)c(C)n2C(=O)c1ccc(Cl)cc1	29%-38%
Cc1cn([C@H]2C[C@H](O)[C@@H](COC(=O)C(C)c3cccc(C(=O)c4ccccc4)c3)O2)c(=O)[nH]c1=O (some centres unmarked)	37%-44%
CCC(CC)COC(=O)[C@H](C)N[P@](=O)(OC[C@H]1O[C@@H](n2cc(C)c(=O)[nH]c2=O)C[C@@H]1O)Oc1ccccc1	38%-46%

----------
Test system: HaCaT cells
run.description: Relief of 5-FU proliferative toxicity to HaCaT cells (CCK-8 cell survival)
Type: cell-based
assay.conditions: 5-Fu 20 μM; selected compound final concentration 50 μM; HaCaT cells
Entries and their Cell Survival Rate (increased percentage of cell survival compared with the Group of 5-FU) values follow.
recorded.metric: Cell Survival Rate (increased percentage of cell survival compared with the Group of 5-FU)

> print(dat)
                                    compound     result
 1  Cc1ccc(C(=O)c2ccc(CC(=O)O[C@H]3C[C@H](n4cc(C)c(=O)[nH]c4=O)O[C@@H]3CO)n2C)cc1    39%-46%
 2  CC1=C(CC(=O)OC[C@H]2O[C@@H](n3cc(C)c(=O)[nH]c3=O)C[C@@H]2O)c2cc(F)ccc2/C1=C\c1ccc([S+](C)[O-])cc1 (stereo partly drawn)    48%-55%
 3  Cc1cn([C@H]2C[C@H](OC(=O)C(C)c3cccc(Oc4ccccc4)c3)[C@@H](CO)O2)c(=O)[nH]c1=O (stereo partly drawn)  100%-107%
 4  Cc1cn([C@H]2C[C@H](OC(=O)[C@@H](C)c3ccc(CC(C)C)cc3)[C@@H](CO)O2)c(=O)[nH]c1=O    69%-76%
 5  Cc1cn([C@H]2C[C@H](O)[C@@H](COC(=O)[C@H](C)c3ccc(-c4ccccc4)c(F)c3)O2)c(=O)[nH]c1=O    48%-54%
 6  Cc1ccc(C(=O)c2ccc(CC(=O)OC[C@H]3O[C@@H](n4cc(C)c(=O)[nH]c4=O)C[C@@H]3O)n2C)cc1    49%-57%
 7  Cc1cn([C@H]2C[C@H](O)[C@@H](COC(=O)C(C)c3cccc(C(=O)c4ccccc4)c3)O2)c(=O)[nH]c1=O (stereo partly drawn)    66%-73%
 8  CC(=O)Oc1ccccc1C(=O)OC[C@H]1O[C@@H](n2cc(C)c(=O)[nH]c2=O)C[C@@H]1O    52%-59%
 9  Cc1cn([C@H]2C[C@H](O)[C@@H](COC(=O)C(C)c3cccc(Oc4ccccc4)c3)O2)c(=O)[nH]c1=O (stereo partly drawn)    46%-53%
10  COc1ccc2cc([C@@H](C)C(=O)OC[C@H]3O[C@@H](n4cc(C)c(=O)[nH]c4=O)C[C@@H]3O)ccc2c1    44%-51%
11  Cc1cn([C@H]2C[C@H](O)[C@@H](COC(=O)[C@H](C)c3ccc(CC(C)C)cc3)O2)c(=O)[nH]c1=O    59%-66%
12  Cc1ccc(Nc2c(F)cccc2Cl)c(CC(=O)OC[C@H]2O[C@@H](n3cc(C)c(=O)[nH]c3=O)C[C@@H]2O)c1    85%-92%

----------
Entries and their Cell Survival Rate (increased percentage of cell survival compared with the Group of 5-FU) values follow.
System: HaCaT cells
run.description: Relief of 5-FU proliferative toxicity to HaCaT cells (CCK-8 cell survival)
Format: cell-based
assay.conditions: 5-Fu 20 μM; selected compound final concentration 12.5 μM; HaCaT cells
recorded.metric: Cell Survival Rate (increased percentage of cell survival compared with the Group of 5-FU)

compound	result
Cc1cn([C@H]2C[C@H](O)[C@@H](COC(=O)[C@@H](C)c3ccc(CC(C)C)cc3)O2)c(=O)[nH]c1=O	44%-51%
CCC(CC)COC(=O)[C@H](C)N[P@@](=O)(Oc1ccccc1)O[C@H]1C[C@H](n2cc(C)c(=O)[nH]c2=O)O[C@@H]1CO	36%-44%
Cc1cn([C@H]2C[C@H](OC(=O)C(C)c3cccc(Oc4ccccc4)c3)[C@@H](COC(=O)C(C)c3cccc(Oc4ccccc4)c3)O2)c(=O)[nH]c1=O (some centres unmarked)	48%-55%
COc1ccc2c(c1)c(CC(=O)OC[C@H]1O[C@@H](n3cc(C)c(=O)[nH]c3=O)C[C@@H]1O)c(C)n2C(=O)c1ccc(Cl)cc1	53%-60%
Cc1ccc(C(=O)c2ccc(CC(=O)OC[C@H]3O[C@@H](n4cc(C)c(=O)[nH]c4=O)C[C@@H]3O)n2C)cc1	52%-60%
Cc1cn([C@H]2C[C@H](O)[C@@H](COC(=O)Cc3ccccc3Nc3c(Cl)cccc3Cl)O2)c(=O)[nH]c1=O	65%-72%
CCC(CC)COC(=O)[C@H](C)N[P@](=O)(OC[C@H]1O[C@@H](n2cc(C)c(=O)[nH]c2=O)C[C@@H]1O)Oc1ccccc1	68%-76%
CC1=C(CC(=O)OC[C@H]2O[C@@H](n3cc(C)c(=O)[nH]c3=O)C[C@@H]2O)c2cc(F)ccc2/C1=C\c1ccc([S+](C)[O-])cc1 (some centres unmarked)	49%-54%
CC(=O)Oc1ccccc1C(=O)OC[C@H]1O[C@@H](n2cc(C)c(=O)[nH]c2=O)C[C@@H]1O	52%-60%
Cc1ccc(Nc2c(F)cccc2Cl)c(CC(=O)OC[C@H]2O[C@@H](n3cc(C)c(=O)[nH]c3=O)C[C@@H]2O)c1	95%-101%
Cc1cn([C@H]2C[C@H](O)[C@@H](COC(=O)C(C)c3cccc(Oc4ccccc4)c3)O2)c(=O)[nH]c1=O (some centres unmarked)	51%-59%
Cc1cn([C@H]2C[C@H](O)[C@@H](COC(=O)C(C)c3cccc(C(=O)c4ccccc4)c3)O2)c(=O)[nH]c1=O (some centres unmarked)	55%-63%
Cc1cn([C@H]2C[C@H](O)[C@@H](COC(=O)[C@H](C)c3ccc(CC(C)C)cc3)O2)c(=O)[nH]c1=O	46%-52%
COc1ccc2cc([C@@H](C)C(=O)OC[C@H]3O[C@@H](n4cc(C)c(=O)[nH]c4=O)C[C@@H]3O)ccc2c1	39%-46%

----------
Entries and their Cell Survival Rate (increased percentage of cell survival compared with the Group of 5-FU) values follow.
System: HaCaT cells
run.description: Relief of 5-FU proliferative toxicity to HaCaT cells (CCK-8 cell survival)
Assay type: cell-based
assay.conditions: 5-Fu 20 μM; selected compound final concentration 100 μM; HaCaT cells
recorded.metric: Cell Survival Rate (increased percentage of cell survival compared with the Group of 5-FU)

molecule	system.under.test	result
Cc1cn([C@H]2C[C@H](O)[C@@H](COC(=O)C(C)c3cccc(C(=O)c4ccccc4)c3)O2)c(=O)[nH]c1=O (some centres unmarked)	HaCaT cells	55%-63%
Cc1cn([C@H]2C[C@H](O)[C@@H](COC(=O)[C@H](C)c3ccc(CC(C)C)cc3)O2)c(=O)[nH]c1=O	HaCaT cells	78%-85%
Cc1ccc(Nc2c(F)cccc2Cl)c(CC(=O)OC[C@H]2O[C@@H](n3cc(C)c(=O)[nH]c3=O)C[C@@H]2O)c1	HaCaT cells	39%-47%
Cc1cn([C@H]2C[C@H](O)[C@@H](COC(=O)C3CCn4c(C(=O)c5ccccc5)ccc43)O2)c(=O)[nH]c1=O (some centres unmarked)	HaCaT cells	67%-74%
Cc1cn([C@H]2C[C@H](OC(=O)C(C)c3cccc(Oc4ccccc4)c3)[C@@H](COC(=O)C(C)c3cccc(Oc4ccccc4)c3)O2)c(=O)[nH]c1=O (some centres unmarked)	HaCaT cells	75%-83%
Cc1cn([C@H]2C[C@H](O)[C@@H](COC(=O)Cc3ccccc3Nc3c(Cl)cccc3Cl)O2)c(=O)[nH]c1=O	HaCaT cells	75%-83%
COc1ccc2c(c1)c(CC(=O)OC[C@H]1O[C@@H](n3cc(C)c(=O)[nH]c3=O)C[C@@H]1O)c(C)n2C(=O)c1ccc(Cl)cc1	HaCaT cells	55%-63%
Cc1cn([C@H]2C[C@H](OC(=O)C(C)c3cccc(Oc4ccccc4)c3)[C@@H](CO)O2)c(=O)[nH]c1=O (some centres unmarked)	HaCaT cells	34%-41%
